B1: Hairpin Ribozyme (parent)
chain: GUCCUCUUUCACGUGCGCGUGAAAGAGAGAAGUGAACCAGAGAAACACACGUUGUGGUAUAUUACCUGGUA

- Variants of: B1
- ASSAY INFO: self-cleavage, relative activity (ratio to wild type); higher = more cleavage; co-transcriptional
Entry flag: TRUE if self-cleavage reaches 0.2; FALSE if it does not.

# SEQUENCE ENTRY, CLASS NAME
measured = [
    ("GUCCUCUUUCACGUGCGCGUGAAAGGGAGAAGUGUACCAGAGAAACACACGUUGUGGUAUAUUACCUGGUA [A26G A35U]", "TRUE"),
    ("GUCCUCUUUCACGUGCGCGUGAAAGAGAGAAGUGAACCAGAGACACACACGUUGUGGUAUAAUACCUGGUA [A44C U62A]", "FALSE"),
]

# check: self-cleavage of GUCCUCCUUCACGUGCGCGUGAAAGAGAGAAGUGAACCAGAGAAACACACGUUGUGGUAUAUUACCUAGUA [U7C G68A] is greater than or equal to 0.2 TRUE

Entry GUCCUCUUUCACGGGCGCGUGAAAGAGAGAAGUGAACCAGAGAAACUCACGUUGUGGUAUAUUACCUGGUA [U14G A47U] please FALSE
